target: human GLP-1 receptor (human, UniProt P43220 24-463); experiment: cell-based or functional assay
# cutoff 2 pM applies to GLP-1 activity (EC50, pM); >= gives T, < gives F

Illustrative cases are given below, each with its answer.
| BINDER | ASSIGNED_LABEL |
| --- | --- |
| MLC100 (ligand) HGEGTFTSDVSSYLEEQAAKEFIAWLVRGGGGQEPARQGDHCPLGPGRCCRLHTVRASLEDLGWADWVLSPREVQVTMCIGACPSQFRAANLHAQIKTSLHRLKPDTVPAPCCVPASYNPMVLIQKTDTGVSLQTYDDLLAKDCHCI | T |
| MLC019 (ligand) HGEGTFTSDVSSYLEEQAAKEFIAWLVRGGGGQEPGAQPGQEPGAQPGQEPGAQPGQEPGAQPGQEPGAQPGQEPGAQPGAQPGAQPGAQPGAQPGAQPGAQPGAQPGAQPARQGDHCPLGPGRCCRLHTVRASLEDLGWADWVLSPREVQVTMCIGACPSQFRAANLHAQIKTSLHRLRPDTVPAPCCVPASYNPMVLIQRTDTGVSLQTYDDLLARDCHCI | T |
| MLC087 (ligand, Moiety B (HOOC-(CH2)16-CO-gGlu-2XADO-EDA-CO-CH2) on 41C of Linker (72C of fusion polypeptide)) HGEGTFTSDVSSYLEEQAAKEFIAWLVRGGGGAQPGAQPGAQPGAQPGAQPGAQPGAQPGAQPGQEPGAQPCQEPGAQPGQEPGAQPGQEPGAQPGQEPGAQPGQEPGAQPARQGDHCPLGPGRCCRLHTVRASLEDLGWADWVLSPREVQVTMCIGACPSQFRAANLHAQIKTSLHRLKPDTVPAPCCVPASYNPMVLIQKTDTGVSLQTYDDLLAKDCHCI | F |
| MLC092 (ligand, Moiety C (HOOC-(CH2)20-CO-gGlu-2XADO-EDA-CO-CH2) on 35C of Linker (66C of fusion polypeptide)) HGEGTFTSDVSSYLEEQAAKEFIAWLVRGGGGAQPGAQPGAQPGAQPGAQPGAQPGAQPGAQPGQCPGAQPGQEPGAQPGQEPGAQPGQEPGAQPGQEPGAQPGQEPGAQPARQGDHCPLGPGRCCRLHTVRASLEDLGWADWVLSPREVQVTMCIGACPSQFRAANLHAQIKTSLHRLKPDTVPAPCCVPASYNPMVLIQKTDTGVSLQTYDDLLAKDCHCI | T |

Query block: Reported GLP-1 activity (EC50, pM) at or above 2 pM? MLC046 (ligand, Moiety A (HOOC-(CH2)16-CO-gGlu-2XADO) on 60K of linker (91K of fusion polypeptide)) HGEGTFTSDVSSYLEEQAAREFIAWLVRGGGGQEPGAQPGQEPGAQPGQEPGAQPGQEPGAQPGQEPGAQPGQEPGAQPGAQPGAQPGAQKGAQPGAQPGAQPGAQPGAQPARQGDHCPLGPGRCCRLHTVRASLEDLGWADWVLSPREVQVTMCIGACPSQFRAANLHAQIKTSLHRLRPDTVPAPCCVPASYNPMVLIQRTDTGVSLQTYDDLLARDCHCI
Result block: F

Query block: State whether the measured GLP-1 activity (EC50, pM) reaches 2 pM, counting equality as reaching it, for MLC013 (ligand, Moiety A (HOOC-(CH2)16-CO-gGlu-2XADO) on 1K of Linker (32K of fusion polypeptide)) HGEGTFTSDVSSYLEEQAAREFIAWLVRGGGKQEPGAQPGQEPGAQPGQEPGAQPGQEPGAQPGQEPGAQPGQEPGAQPGAQPGAQPGAQPGAQPGAQPGAQPGAQPGAQPARQGDHCPLGPGRCCRLHTVRASLEDLGWADWVLSPREVQVTMCIGACPSQFRAANLHAQIKTSLHRLRPDTVPAPCCVPASYNPMVLIQRTDTGVSLQTYDDLLARDCHCI
Result block: T

Query block: Form field: GLP-1 activity (EC50, pM) at least 2 pM? Entry: MLC030 (ligand, Moiety A (HOOC-(CH2)16-CO-gGlu-2XADO) on 15K of Linker (46K of fusion polypeptide)) HGEGTFTSDVSSYLEEQAAREFIAWLVRGGGGQEPGQEPGQEPGQKPGQEPGQEPGQEPGQEPGAQPGAQPGAQPGAQPGAQPGAQPGAQPGAQPGAQPGAQPGAQPGAQPARQGDHCPLGPGRCCRLHTVRASLEDLGWADWVLSPREVQVTMCIGACPSQFRAANLHAQIKTSLHRLRPDTVPAPCCVPASYNPMVLIQRTDTGVSLQTYDDLLARDCHCI
Result block: F

Query block: Can MLC012 (ligand, Moiety A (HOOC-(CH2)16-CO-gGlu-2XADO) on 12K of Linker (43K of fusion polypeptide)) HGEGTFTSDVSSYLEEQAAREFIAWLVRGGGGQEPGQEPGQEKGQEPGQEPGQEPGQEPGQEPGQEPGQEPARQGDHCPLGPGRCCRLHTVRASLEDLGWADWVLSPREVQVTMCIGACPSQFRAANLHAQIKTSLHRLRPDTVPAPCCVPASYNPMVLIQRTDTGVSLQTYDDLLARDCHCI be said to have GLP-1 activity (EC50, pM) at or above 2 pM?
Result block: T

Query block: Decide: GLP-1 activity (EC50, pM) of MLC004 (ligand, Moiety A (HOOC-(CH2)16-CO-gGlu-2XADO) on 26K of GLP-1 (20K of fusion polypeptide)) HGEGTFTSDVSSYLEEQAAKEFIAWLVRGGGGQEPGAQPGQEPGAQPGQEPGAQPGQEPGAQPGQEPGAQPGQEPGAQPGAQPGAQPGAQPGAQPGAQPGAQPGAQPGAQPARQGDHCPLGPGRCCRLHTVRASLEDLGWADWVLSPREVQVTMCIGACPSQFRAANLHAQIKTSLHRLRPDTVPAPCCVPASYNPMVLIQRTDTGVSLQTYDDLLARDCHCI >= 2 pM?
Result block: T

Query block: Please tell me: is the binder MLC081 (ligand, Moiety C (HOOC-(CH2)20-CO-gGlu-2XADO-EDA-CO-CH2) on 35C of Linker (66C of fusion polypeptide)) HGEGTFTSDVSSYLEEQAAKEFIAWLVRGGGGQEPGAQPGQEPGAQPGQEPGAQPGQEPGAQPGQCPGAQPGQEPGAQPGQEPGAQPGAQPGAQPGAQPGAQPGAQPGAQPARQGDHCPLGPGRCCRLHTVRASLEDLGWADWVLSPREVQVTMCIGACPSQFRAANLHAQIKTSLHRLKPDTVPAPCCVPASYNPMVLIQKTDTGVSLQTYDDLLAKDCHCI at or over 2 pM in terms of GLP-1 activity (EC50, pM)?
Result block: F
